molecular target: MAPK14 (human) (UniProt Q16539)
Sequence (Q16539 whole entry, looked up): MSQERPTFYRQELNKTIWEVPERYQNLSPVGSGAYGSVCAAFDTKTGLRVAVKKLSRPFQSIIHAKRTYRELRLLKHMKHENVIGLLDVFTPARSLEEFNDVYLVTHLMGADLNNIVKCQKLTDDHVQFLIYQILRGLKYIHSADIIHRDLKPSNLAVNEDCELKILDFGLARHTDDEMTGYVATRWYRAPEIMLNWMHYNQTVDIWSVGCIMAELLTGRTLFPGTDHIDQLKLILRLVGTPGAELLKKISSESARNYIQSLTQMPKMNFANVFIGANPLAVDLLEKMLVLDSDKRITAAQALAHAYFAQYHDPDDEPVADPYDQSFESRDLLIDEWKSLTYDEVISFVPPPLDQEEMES
pKi: −log10 of the molar value.
# Lookup of reported pKi keyed by entry
value.kind: pKi

1. CCN(CCN(C)C)C(=O)c1cccc(-n2nc(C(C)(C)C)cc2NC(=O)Nc2cccc3ccccc23)c1 :: 6.13
2. CC(C)(C)c1cc(NC(=O)Nc2cccc3ccccc23)n(-c2cccc(C(=O)NC3CCN(CCN4CCOCC4)CC3)c2)n1 :: 6.05
3. CC(C)(C)c1cc(NC(=O)Nc2cccc3ccccc23)n(-c2cccc(C(=O)N(CCCN)C3CCCCC3)c2)n1 :: 7.05
4. CC(C)(C)c1cc(NC(=O)Nc2cccc3ccccc23)n(-c2cccc(C(=O)NCCNc3ccccc3)c2)n1 :: 6.36
5. COCCCN1CCC(NC(=O)c2cccc(-n3nc(C(C)(C)C)cc3NC(=O)Nc3cccc4ccccc34)c2)CC1 :: 6.47
6. CN1CCN(CCNC(=O)c2cccc(-n3nc(C(C)(C)C)cc3NC(=O)Nc3cccc4ccccc34)c2)CC1 :: 6.85
